# credit: the supplement of paper PMC10567573

protein stability index reference
B1: TRAF3IP2 (parent)
chain: KQGSMNFRFIPVLFPNAKKEHVPT

Variants of: B1
assay name: protein stability index of a GFP-peptide fusion (GPS, HEK-293T) (PSI 1-6); higher = more stable;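 also: lentivirally expressed fusions sorted by FACS into six bins by GFP to DsRed ratio, PSI derived from sequencing read proportions per bin multiplied by bin number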
conditions: c terminus: a fixed tail appended
Answer using only a numeral; do not append any unit.

Consider the reported protein stability index for these variants:
| variant spec | assay endpoint | recorded number |
| --- | --- | --- |
| N16A | protein stability index | 1.75 |
| S4E | protein stability index | 2.57 |
| V22R | protein stability index | 1.99 |
| V22K | protein stability index | 2.61 |
| K1P | protein stability index | 1.88 |
| N16H | protein stability index | 1.66 |
| F14P | protein stability index | 2.71 |
| V12C | protein stability index | 2.35 |

Note protein stability index for the variant shown: T24F
1.75

Note protein stability index for the variant shown: L13F
2.04

Note protein stability index for the variant shown: F7T
2.73
